- EXPERIMENTAL_DETAILS: Solubility
- Type: physicochemical
- CONDITION_SUMMARY: water
MEASURED_ATTRIBUTE: Solubility in water

COMPOUND	RECORDED_RESULT
COc1cc(C)cc2c(=O)oc3c4cccc(O)c4c(O)cc3c12	Sparingly soluble
COc1cc(C)cc2c(=O)oc3c4cccc(OC5OC(C)C(O)C(O)C5O)c4c(O)cc3c12 (stereo not shown)	Sparingly soluble
COc1cc(C)cc2c(=O)oc3c4cccc(O)c4c(OC4OC(C)C(O)C(O)C4O)cc3c12 (stereo not shown) [BE-12406A]	Sparingly soluble
Cc1cc(O)c2c(c1)c(=O)oc1c3cccc(O)c3c(OC3OC(C)C(O)C(O)C3O)cc12 (stereo not shown) [BE-12406B]	Sparingly soluble
